Biological target: T1, PUF4 RNA-binding domain (Saccharomyces cerevisiae, UniProt P25339 537-888)
T1 sequence: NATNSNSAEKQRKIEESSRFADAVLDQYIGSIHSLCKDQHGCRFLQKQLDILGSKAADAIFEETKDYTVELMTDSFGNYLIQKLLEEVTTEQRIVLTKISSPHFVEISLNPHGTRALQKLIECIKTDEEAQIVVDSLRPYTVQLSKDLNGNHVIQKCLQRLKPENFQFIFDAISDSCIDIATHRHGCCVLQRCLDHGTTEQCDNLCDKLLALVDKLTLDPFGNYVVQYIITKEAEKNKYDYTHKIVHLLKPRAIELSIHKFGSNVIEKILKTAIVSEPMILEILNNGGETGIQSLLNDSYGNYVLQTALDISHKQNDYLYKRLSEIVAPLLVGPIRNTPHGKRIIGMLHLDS
Experiment: Mg; RNA-MaP; 20 mM Na-HEPES pH 7.4, 30 mM KOAc, 0.75 mM MgCl2, 0.1% Tween-20, 5% glycerol, 0.1 mg/mL BSA, 2 mM DTT; 25 C; 0.0125-409.6 nM protein
Conditions: tags: N-His6-TEV cleaved; C-SNAP kept, Cy3B-labelled; label: tethered on chip by stalled RNA polymerase
pKd: −log10 of the molar value.
Please note: fulfilled applies when pKd is 7 or greater, and not fulfilled applies otherwise.

binder	assignedClass
Ic_S4_P5E.1_K5.1_C5.1_H5.1_A5.1_[T5C]_[T6C]_[A7T]_F5.1_[T9A]_[A10G]_T5.1 (ssRNA) RNA: UUUGACAACUGAUCGUUCUUUCUUGUACCUUAGUUCUUUCUCGAUCAGUUGUCUUU	fulfilled
UCUCUUCAACACUAUACCUCUCUU (ssRNA) [Id_ii_S1_P3E.4_K3.3_C3.2_[T-1A]_H3.3_A3.1_F3.1_T3.2_[T9C]_[A10C]]	not fulfilled
UCUCUUGGCAUUAUUAUCUCUU (ssRNA) [Ib_S1_P5E.1_K5.1_C5.1_H5.1_[T1G]_[T3C]_A5.1_F5.1_T5.1]	not fulfilled

Test whether the binder Ib_S2_P3E.1_K3.1_C3.1_H3.1_[A4C]_A3.1_[T5C]_F3.1_T3.1 (ssRNA) RNA: UUUGAUUAAUAUGAUAUCGUUCUUUCUUGUCCAUAUUCUUUCUCGAUAUCAUAUUAAUCUUU records pKd of 7 or higher.
not fulfilled

Test whether the binder ACAAACUGCCUCUAUUAUUAACAAAC (ssRNA) [Ie_S3_P5E.1_K5.1_C5.1_H5.1_[+2CCTC]_A5.1_F5.1_T5.1] records pKd of 7 or higher.
not fulfilled

Test whether the binder Ic_S4_P3E.1_K3.1_C3.1_H3.1_A3.1_[T5C]_[A6T]_F3.1_[T7A]_T3.1 (ssRNA) RNA: UUUGACAACUGAUCGUUCUUUCUUGUACUAAUUCUUUCUCGAUCAGUUGUCUUU records pKd of 7 or higher.
fulfilled

Origin of measurements: paper PMC9352680
